Target: Tyrosine-protein phosphatase non-receptor type 5 (Homo sapiens)
Sequence (P54829 whole entry): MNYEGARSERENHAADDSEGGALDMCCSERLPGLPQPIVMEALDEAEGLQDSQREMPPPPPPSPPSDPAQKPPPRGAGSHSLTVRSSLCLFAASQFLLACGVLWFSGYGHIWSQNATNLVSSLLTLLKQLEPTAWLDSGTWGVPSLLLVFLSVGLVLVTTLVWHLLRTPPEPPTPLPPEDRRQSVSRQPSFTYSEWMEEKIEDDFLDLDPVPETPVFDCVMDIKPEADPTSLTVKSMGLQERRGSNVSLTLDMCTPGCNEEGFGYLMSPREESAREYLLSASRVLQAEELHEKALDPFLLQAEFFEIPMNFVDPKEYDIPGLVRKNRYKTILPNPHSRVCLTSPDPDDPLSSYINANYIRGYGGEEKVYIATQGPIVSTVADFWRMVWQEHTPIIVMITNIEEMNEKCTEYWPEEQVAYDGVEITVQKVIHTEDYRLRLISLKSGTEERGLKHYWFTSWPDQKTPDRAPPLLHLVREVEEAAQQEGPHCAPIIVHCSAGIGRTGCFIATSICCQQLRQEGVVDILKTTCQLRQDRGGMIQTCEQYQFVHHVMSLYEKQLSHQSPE
pIC50: −log10 of the molar value.

{"SMILES_REPRESENTATION": "O=S(=O)(Nc1ccc(-c2nc3ccccc3o2)cc1)c1ccc(Cl)c(Cl)c1", "COMPARATOR": "=", "pIC50": 4.52}
{"SMILES_REPRESENTATION": "O=S(=O)(Nc1ccc(-c2nc3ccccc3o2)cc1)c1cccc(Cl)c1", "COMPARATOR": "=", "pIC50": 3.26}
{"SMILES_REPRESENTATION": "O=S(=O)(Nc1ccc(-c2nc3cc(NS(=O)(=O)c4ccc5ncsc5c4)ccc3o2)cc1)c1ccc2ncsc2c1", "COMPARATOR": "=", "pIC50": 4.70}
{"SMILES_REPRESENTATION": "O=C(O)c1cccc(S(=O)(=O)Nc2ccc(-c3nc4cc(NS(=O)(=O)c5cccc(C(=O)O)c5)ccc4o3)cc2)c1", "COMPARATOR": "<", "pIC50": 4.00}
{"SMILES_REPRESENTATION": "O=S(=O)(Nc1ccc(-c2nc3cc(NS(=O)(=O)c4ccc(Cl)s4)ccc3o2)cc1)c1ccc(Br)cc1", "COMPARATOR": "=", "pIC50": 5.06}
{"SMILES_REPRESENTATION": "O=[N+]([O-])c1cc(S(=O)(=O)Nc2ccc(-c3nc4cc(NS(=O)(=O)c5ccc(Cl)s5)ccc4o3)cc2)ccc1Cl", "COMPARATOR": "=", "pIC50": 4.82}
{"SMILES_REPRESENTATION": "C=Cc1ccc(S(=O)(=O)Nc2ccc3oc(-c4ccccc4)nc3c2)cc1", "COMPARATOR": "=", "pIC50": 4.46}
{"SMILES_REPRESENTATION": "O=S(=O)(Nc1ccc2oc(-c3ccc(NS(=O)(=O)c4ccc(Cl)s4)cc3)nc2c1)c1ccc2ncsc2c1", "COMPARATOR": "=", "pIC50": 4.96}
{"SMILES_REPRESENTATION": "CCc1ccc(S(=O)(=O)Nc2ccc3oc(-c4ccc(NS(=O)(=O)c5ccc(Cl)s5)cc4)nc3c2)cc1", "COMPARATOR": "=", "pIC50": 4.82}
{"SMILES_REPRESENTATION": "N#Cc1ccc(S(=O)(=O)Nc2ccc(-c3nc4cc(NS(=O)(=O)c5ccc(C#N)cc5)ccc4o3)cc2)cc1", "COMPARATOR": "=", "pIC50": 4.57}
{"SMILES_REPRESENTATION": "COc1ccc(S(=O)(=O)Nc2ccc(-c3nc4ccccc4o3)cc2)cc1", "COMPARATOR": "=", "pIC50": 4.35}
{"SMILES_REPRESENTATION": "O=S(=O)(Nc1ccc(-c2nc3ccccc3o2)cc1)c1cccc(F)c1", "COMPARATOR": "=", "pIC50": 4.27}
{"SMILES_REPRESENTATION": "O=S(=O)(Nc1ccc2oc(-c3ccccc3)nc2c1)c1ccc(F)cc1", "COMPARATOR": "=", "pIC50": 4.39}
{"SMILES_REPRESENTATION": "O=S(=O)(Nc1ccc(-c2nc3cc(NS(=O)(=O)c4ccccc4Cl)ccc3o2)cc1)c1ccccc1Cl", "COMPARATOR": "=", "pIC50": 4.77}
{"SMILES_REPRESENTATION": "Cc1ccc(S(=O)(=O)Nc2ccc(-c3nc4ccccc4o3)cc2)cc1", "COMPARATOR": "=", "pIC50": 4.35}
{"SMILES_REPRESENTATION": "O=S(=O)(Nc1ccc(-c2nc3cc(NS(=O)(=O)c4cccc(Cl)c4)ccc3o2)cc1)c1cccc(Cl)c1", "COMPARATOR": "=", "pIC50": 4.89}
{"SMILES_REPRESENTATION": "O=S(=O)(Nc1ccc2oc(-c3ccccc3)nc2c1)c1cccc(F)c1", "COMPARATOR": "=", "pIC50": 4.38}
{"SMILES_REPRESENTATION": "O=C(O)c1ccc(S(=O)(=O)Nc2ccc(-c3nc4cc(NS(=O)(=O)c5ccc(C(=O)O)cc5)ccc4o3)cc2)cc1", "COMPARATOR": "<", "pIC50": 4.00}
{"SMILES_REPRESENTATION": "O=S(=O)(Nc1ccc(-c2nc3cc(NS(=O)(=O)c4ccc(Cl)cc4)ccc3o2)cc1)c1ccc(Cl)cc1", "COMPARATOR": "=", "pIC50": 4.92}
{"SMILES_REPRESENTATION": "O=S(=O)(Nc1ccc2oc(-c3ccc(NS(=O)(=O)c4ccc(Cl)s4)cc3)nc2c1)c1ccc(F)c(C(F)(F)F)c1", "COMPARATOR": "=", "pIC50": 4.85}
{"SMILES_REPRESENTATION": "N#Cc1cccc(S(=O)(=O)Nc2ccc(-c3nc4cc(NS(=O)(=O)c5cccc(C#N)c5)ccc4o3)cc2)c1", "COMPARATOR": "=", "pIC50": 4.36}
{"SMILES_REPRESENTATION": "O=S(=O)(Nc1ccc(-c2nc3cc(NS(=O)(=O)c4ccccc4C(F)(F)F)ccc3o2)cc1)c1ccccc1C(F)(F)F", "COMPARATOR": "=", "pIC50": 4.82}
{"SMILES_REPRESENTATION": "O=S(=O)(Nc1ccc2oc(-c3ccccc3)nc2c1)c1ccc(F)c(C(F)(F)F)c1", "COMPARATOR": "=", "pIC50": 4.59}
{"SMILES_REPRESENTATION": "NCc1ccc(S(=O)(=O)Nc2ccc(-c3nc4cc(NS(=O)(=O)c5ccc(Cl)s5)ccc4o3)cc2)cc1", "COMPARATOR": "=", "pIC50": 4.12}
{"SMILES_REPRESENTATION": "Nc1ccc(S(=O)(=O)Nc2ccc(-c3nc4cc(NS(=O)(=O)c5ccc(N)cc5)ccc4o3)cc2)cc1", "COMPARATOR": "=", "pIC50": 4.39}
{"SMILES_REPRESENTATION": "N#Cc1ccccc1S(=O)(=O)Nc1ccc(-c2nc3cc(NS(=O)(=O)c4ccccc4C#N)ccc3o2)cc1", "COMPARATOR": "=", "pIC50": 4.33}
{"SMILES_REPRESENTATION": "CCc1ccc(S(=O)(=O)Nc2ccc3oc(-c4ccccc4)nc3c2)cc1", "COMPARATOR": "=", "pIC50": 4.38}
{"SMILES_REPRESENTATION": "O=S(=O)(Nc1ccc(-c2nc3cc(NS(=O)(=O)c4ccc(Br)cc4)ccc3o2)cc1)c1ccc(Br)cc1", "COMPARATOR": "=", "pIC50": 4.96}
{"SMILES_REPRESENTATION": "O=S(=O)(Nc1ccc(-c2nc3cc(NS(=O)(=O)c4ccc(Cl)s4)ccc3o2)cc1)c1ccc(Cl)s1", "COMPARATOR": "=", "pIC50": 4.82}
{"SMILES_REPRESENTATION": "Cc1ccccc1S(=O)(=O)Nc1ccc2oc(-c3ccccc3)nc2c1", "COMPARATOR": "=", "pIC50": 4.52}
{"SMILES_REPRESENTATION": "COc1ccccc1S(=O)(=O)Nc1ccc2oc(-c3ccccc3)nc2c1", "COMPARATOR": "=", "pIC50": 4.42}
{"SMILES_REPRESENTATION": "O=[N+]([O-])c1ccccc1S(=O)(=O)Nc1ccc(-c2nc3cc(NS(=O)(=O)c4ccccc4[N+](=O)[O-])ccc3o2)cc1", "COMPARATOR": "=", "pIC50": 4.54}
{"SMILES_REPRESENTATION": "O=S(=O)(Nc1ccc(-c2nc3ccccc3o2)cc1)c1ccc(Cl)s1", "COMPARATOR": "=", "pIC50": 4.19}
{"SMILES_REPRESENTATION": "CCc1ccc(S(=O)(=O)Nc2ccc(-c3nc4cc(NS(=O)(=O)c5ccc(Cl)s5)ccc4o3)cc2)cc1", "COMPARATOR": "=", "pIC50": 4.92}
{"SMILES_REPRESENTATION": "O=S(=O)(Nc1ccc2oc(-c3ccc(NS(=O)(=O)c4ccc(Cl)s4)cc3)nc2c1)c1cccs1", "COMPARATOR": "=", "pIC50": 4.64}
